// reported peptide microarray binding signal per item
- target-system: T1, HaloTag-ATRX ADD domain (163-292)
- T1 chain: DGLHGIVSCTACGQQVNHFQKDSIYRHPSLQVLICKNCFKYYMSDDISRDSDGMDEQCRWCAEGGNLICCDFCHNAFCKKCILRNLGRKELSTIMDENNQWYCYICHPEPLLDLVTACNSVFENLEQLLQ
- assay-overview: peptide microarray binding signal (635 nm), min-max normalized on array (fraction of array maximum); higher = stronger binding
- reported-conditions: peptide region: Unmod H2A variant; binder concentration: 500 nM

binder	peptide microarray binding signal
IQAVLLPKKTESH [Unmod H2A variant I Q A V L L P K K T E S H]	0.0333
SGRGKQGGKARAK [Unmod H2A variant S G R G K Q G G K A R A K]	0.0194
MAAVLEYLTAEIL [Unmod H2A variant M A A V L E Y L T A E I L]	0.00667
RSSRAGLQFPVGR [Unmod H2A variant R S S R A G L Q F P V G R]	0.0768
